# credit: patent EP0319316A2

Tested on: Balb/3T3 cells
Conditions: 10 min, 500 µM
experimentalReadout: cAMP accumulating effect
Returns: the value as a bare number; no unit string appended.

Solved entries:
CC(=O)Oc1ccc(COC(=O)C23C=C(CC(=O)O)OC2C(O)C(n2cnc4c(N)ncnc42)O3)cc1 (centres unmarked) [Example 36, 9'-(4-Acetoxybenzyl) 7'-deoxygriseolate] | 16
CC(=O)Oc1ccc(COC(=O)C(O)C2=CC3(C(=O)O)OC(n4cnc5c(N)ncnc54)C(O)C3O2)cc1 (centres unmarked) [Example 34, 8'-(4-Acetoxybenzyl) griseolate] | 16
CC(=O)Oc1ccc(COC(=O)C23C=C(C(O)C(=O)O)OC2C(O)C(n2cnc4c(N)ncnc42)O3)cc1 (centres unmarked) [Example 19(b), 9'-(4-Acetoxybenzyl) griseolate] | 16
CC(C)(C)C(=O)Oc1ccc(COC(=O)C23C=C(C(O)C(=O)O)OC2C(O)C(n2cnc4c(N)ncnc42)O3)cc1 (centres unmarked) [Example 21(b), 9'-(4-Pivaloyloxybenzyl) griseolate] | 8.5

// below: cAMP accumulating effect requested for another compound
Input COc1cc(COC(=O)C(O)C2=CC3(C(=O)O)OC(n4cnc5c(N)ncnc54)C(O)C3O2)ccc1OC(C)=O (centres unmarked) . Output cAMP accumulating effect: 18
